Protein target, amino acids: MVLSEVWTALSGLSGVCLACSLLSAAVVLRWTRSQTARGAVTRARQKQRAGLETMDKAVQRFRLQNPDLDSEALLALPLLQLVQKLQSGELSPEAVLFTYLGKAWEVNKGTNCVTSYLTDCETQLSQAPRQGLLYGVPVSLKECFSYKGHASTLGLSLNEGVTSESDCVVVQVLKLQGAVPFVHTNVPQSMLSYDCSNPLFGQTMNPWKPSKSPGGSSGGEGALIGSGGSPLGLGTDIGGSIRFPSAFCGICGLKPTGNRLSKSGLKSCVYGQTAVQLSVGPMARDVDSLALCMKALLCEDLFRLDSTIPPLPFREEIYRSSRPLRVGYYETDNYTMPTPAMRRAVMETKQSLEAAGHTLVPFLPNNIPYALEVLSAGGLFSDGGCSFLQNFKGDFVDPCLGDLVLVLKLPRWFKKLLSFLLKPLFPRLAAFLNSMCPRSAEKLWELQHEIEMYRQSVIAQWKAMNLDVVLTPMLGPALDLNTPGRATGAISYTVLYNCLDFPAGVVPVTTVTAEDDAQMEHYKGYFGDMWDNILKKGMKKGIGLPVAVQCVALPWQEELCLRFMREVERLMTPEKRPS
MEASURED_ATTRIBUTE: IC50 (nM)

* O=C(CCCCCCc1ccccc1)c1ncon1 [10a] | 500
* COC(=O)c1nc(C(=O)CCCCCCc2ccccc2)no1 [10h] | 10
* COC(=O)c1cccc(-c2noc(C(=O)CCCCCCc3ccccc3)n2)n1 | 3

[I] O=C(CCCCCCc1ccccc1)c1cccnn1 [13a, 7-Phenyl-1-(pyridazin-3-yl)-heptan-1-one]
[II] O=C(O)c1cccc(-c2nc(C(=O)CCCCCCc3ccccc3)no2)n1 [10g]
[III] O=C(CCCCCCc1ccccc1)c1nnc(-c2ccccn2)s1 [12b]
[IV] O=C(CCCCCCc1ccccc1)c1nc(-c2ccccn2)no1
Incoming: Order the entries by their reported IC50, beginning at the minimum. Reply format: the labels, ordered as requested.
Outgoing: IV, III, II, I

[1] O=C(CCCCCCc1ccccc1)c1nncs1 [12a]
[2] COC(=O)c1cccc(-c2cnc(C(=O)CCCCCCc3ccccc3)o2)n1
Incoming: Which gives the smaller IC50 number: 1 or 2 ? Give the label under which the chosen entry appears.
Outgoing: 2
(2: 170 nM, 1: 300 nM)

---

# TARGET: KIAA1363 (Mus musculus, UniProt Q8BLF1)
# Construct: with FP-Rh in brain and heart membrane proteome; from tissue; host or cells: brain and heart membrane proteome
# Sequence (Q8BLF1 whole entry): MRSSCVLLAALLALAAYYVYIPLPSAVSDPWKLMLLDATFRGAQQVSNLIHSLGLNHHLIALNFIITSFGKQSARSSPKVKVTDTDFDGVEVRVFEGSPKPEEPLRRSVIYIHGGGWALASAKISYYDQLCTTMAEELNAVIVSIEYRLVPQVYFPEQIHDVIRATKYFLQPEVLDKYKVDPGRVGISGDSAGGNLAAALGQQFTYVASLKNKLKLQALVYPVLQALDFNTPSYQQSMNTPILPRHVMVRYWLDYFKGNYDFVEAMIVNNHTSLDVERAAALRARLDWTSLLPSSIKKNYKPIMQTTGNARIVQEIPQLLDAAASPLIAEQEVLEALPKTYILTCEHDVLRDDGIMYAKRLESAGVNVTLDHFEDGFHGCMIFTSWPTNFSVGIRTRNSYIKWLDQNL
# ASSAY_METHOD_TEXT: Activity based protein profiling (proteome-wide selectivity screening, FP-Rh), KIAA1363
# Assay type: biochemical
# CONDITION_DETAILS: Table 4; ratio KIAA1363 IC50 / FAAH IC50 (fold selectivity for FAAH)
MEASURED_ATTRIBUTE: KIAA1363 selectivity (value in parentheses)

Example entries begin here.
- COC(=O)c1nc(C(=O)CCCCCCc2ccccc2)no1 [10h]: > 10000
- O=C(CCCCCCc1ccccc1)c1noc(-c2ccccn2)n1 [10b]: > 14000
- O=C(CCCCCCc1ccccc1)c1ncc(-c2ccco2)o1 [7c]: > 1250
- O=C(CCCCCCc1ccccc1)c1ncon1 [10a]: > 200
- O=C(CCCCCCc1ccccc1)c1cccnn1 [13a, 7-Phenyl-1-(pyridazin-3-yl)-heptan-1-one]: > 30
- O=C(CCCCCCc1ccccc1)c1ncno1 [9a]: 6250

Incoming: Give the reported KIAA1363 selectivity (value in parentheses) for O=C(CCCCCCc1ccccc1)c1nncs1 [12a] (system: KIAA1363 (Mus musculus, UniProt Q8BLF1)).
Outgoing: > 330

Incoming: API: value(readout=KIAA1363 selectivity (value in parentheses), system=KIAA1363 (Mus musculus, UniProt Q8BLF1)) for record O=C(O)c1cccc(-c2cnc(C(=O)CCCCCCc3ccccc3)o2)n1 [7g]
Outgoing: > 1000

Incoming: Find the measured KIAA1363 selectivity (value in parentheses): item COC(=O)c1cccc(-c2ccc(C(=O)CCCCCCc3ccccc3)nn2)n1 [13f] , target or system KIAA1363 (Mus musculus, UniProt Q8BLF1).
Outgoing: > 10

Incoming: Enter reported KIAA1363 selectivity (value in parentheses) observed with KIAA1363 (Mus musculus, UniProt Q8BLF1) for COC(=O)c1cccc(-c2nnc(C(=O)CCCCCCc3ccccc3)o2)n1 [8f]
Outgoing: > 12500
